Cited source: PubChem BioAssay AID626

tested on: Muscarinic acetylcholine receptor M1; test: M1 muscarinic receptor agonists, primary screen, CHO-M1 cells, Fluo-4 calcium, agonist mode (AID 626); conditions: Fluo-4 calcium fluorescence, at 10 µM, active compounds read high
Hit rate of the full screen: of about 64,000 compounds, about 1,900 (3%) were called active. The full list was thinned out, with actives kept by preference.
Param threshold (-0.2) applies to B-score; output met when value >= threshold, not met when value < threshold.

A selection of reference data follows.
molecule	labelValue
CCOC(=O)c1sc(NC(=O)C(CC)Sc2nccn2C)nc1C (stereo not given)	met
CCCC(=O)NC(C)C(c1cccs1)N1CCN(c2ccccc2)CC1 (stereo not given)	not met
CS(=O)(=O)c1ccc2nc(NC(=O)C3CCCCC3)sc2c1	met
COc1ccc(N2CCN(CCNC(=O)CCN3C(=O)COc4ccccc43)CC2)cc1	met

Hi team, for `Cc1nc2nc(CSc3nc4ccccc4s3)cc(=O)n2[nH]1` , is the recorded B-score at or above -0.2?
met

Hi team, for `COC(=O)c1cn(-c2ccccc2)nc1-c1cccnc1` , is the recorded B-score at or above -0.2?
not met

Hi team, for `Cn1c(=O)c2c(nc(SCC(=O)Nc3ccccc3N3CCCCC3)n2C)n(C)c1=O` , is the recorded B-score at or above -0.2?
met

Hi team, for `COc1ccc(CN(C(=O)c2cccs2)c2nccs2)cc1OC` , is the recorded B-score at or above -0.2?
not met

Hi team, for `CCOC(=O)Cn1c(=O)oc2cc(S(=O)(=O)N(C)Cc3ccco3)ccc21` , is the recorded B-score at or above -0.2?
not met

----------
system: Muscarinic acetylcholine receptor M1; experiment: M1 muscarinic receptor agonists, primary screen, CHO-M1 cells, Fluo-4 calcium, agonist mode (AID 626); details: Fluo-4 calcium fluorescence, at 10 µM
Screen size: about 64,000 compounds; about 1,900 (3%) were called active.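 How the source made its calls: active means fluorescence rise, raw or as B-score row- and column-corrected plate score, outside the 99.7% band of its plate's samples, either direction; inactive means the rest.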 This excerpt belongs to a sample that is enriched for actives.
API: response.call in True for active, False for inactive

Check the results log: what was the call for `CCOC(=O)c1c(N)c(C#N)nn1-c1ccccc1C(=O)OC` ?
False

Check the results log: what was the call for `CS(=O)(=O)N(Cc1nc2sc3c(c2c(=O)[nH]1)CCCC3)C1CCCCC1` ?
False

Check the results log: what was the call for `CN(C)c1ccc(NC(=O)c2ccncc2)c2ccccc12` ?
False

Check the results log: what was the call for Cc1cccc(CC(=O)Nc2c3c(nn2-c2cccc(Cl)c2)CS(=O)C3)c1 (stereo not drawn) ?
False

Check the results log: what was the call for `CCOc1ccc(NC(=O)N2CC=C(n3c(=O)[nH]c4ccccc43)CC2)cc1` ?
True

Check the results log: what was the call for `COc1ccc(C)cc1NC(=O)c1[nH]c(C)c(C(C)=O)c1C` ?
False

Check the results log: what was the call for CCC(Oc1ccccc1)C(=O)NCc1cccnc1 (stereo not drawn) ?
False

Check the results log: what was the call for `CCOC(=O)C1CCN(C(=O)C2CCN(S(=O)(=O)c3c(C)noc3C)CC2)CC1` ?
False

Check the results log: what was the call for `COc1ccc(Cn2nnc3c(=O)[nH]c(C4CCN(C(=O)c5ccccc5Cl)CC4)nc32)cc1` ?
False

----------
test system: Muscarinic acetylcholine receptor M1; experiment: M1 muscarinic receptor agonists, primary screen, CHO-M1 cells, Fluo-4 calcium, agonist mode (AID 626); conditions: Fluo-4 calcium fluorescence, at 10 µM, active compounds read high
Among all 64,000 compounds or so, about 1,900 (3%) were called active. Only a selection was taken, and actives are over-represented in it overall.
Param threshold (0.9) applies to B-score; output y when value >= threshold, n when value < threshold.

molecule	labelValue
COc1ccccc1NC(=O)C1=C(C)NC2=C(C(=O)CCC2)C1c1ccc(C)o1 (stereo not given)	n
COc1ccccc1CNC(=O)C1CCCN(S(=O)(=O)c2cccc3cccnc23)C1 (stereo not given)	n
CCOC(=O)C1CCCN(Cc2nc(N)nc(Nc3ccc(C)cc3)n2)C1 (stereo not given)	y
CCOC(=O)[C@H]1CCC[C@@H](NS(=O)(=O)c2ccc(NC(C)=O)cc2)C1	n
COc1ccc(CCNC(=O)c2ccco2)cc1	y

Hi team, for `COC(=O)c1ccc(N(CC(=O)NC2CCCC2)C(=O)CNC(=O)c2ccco2)cc1` , is the recorded B-score at or above 0.9?
n

Hi team, for `CCOC(=O)NCc1ccc2c(c1)OCO2` , is the recorded B-score at or above 0.9?
n

Hi team, for COc1ccc(NC(=O)C2CCCN(S(=O)(=O)c3cccc4cccnc34)C2)cc1 (stereo not given) , is the recorded B-score at or above 0.9?
n

Hi team, for COc1ccc(NC(=O)C2CCCN(S(=O)(=O)c3cccc4cccnc34)C2)cc1OC (stereo not given) , is the recorded B-score at or above 0.9?
y

----------
system: Muscarinic acetylcholine receptor M1; test: M1 muscarinic receptor agonists, primary screen, CHO-M1 cells, Fluo-4 calcium, agonist mode (AID 626); conditions: Fluo-4 calcium fluorescence, at 10 µM, active compounds read high
Hit rate of the full screen: of about 64,000 compounds, about 1,900 (3%) were called active. For the sample, actives were picked, then their nearest neighbours and some compounds at random.
Collected B-score values appear next to each entry.
Lab note: jot down the number only; don't add units.

These solved cases illustrate the format of a correct answer.
molecule	assaySystem	readoutLabel	quantitativeReadout
COc1ccc(C(=O)OCC(=O)c2ccc(C)c(S(=O)(=O)N3CCOCC3)c2)cc1OC	Muscarinic acetylcholine receptor M1	B-score	11.4
COc1ccc(CC(=O)Nc2nc3n(n2)C(c2ccccc2)CC(=O)N3)cc1OC (stereo not given)	Muscarinic acetylcholine receptor M1	B-score	1.86

Could you please provide reported B-score for `Cc1ccc(F)cc1NC(=O)c1ccc2c(c1)OCO2` ? Thanks!
0.368

Could you please provide reported B-score for `COc1ccc(C(=O)CSc2nccc(=O)[nH]2)cc1` ? Thanks!
1.27

Could you please provide reported B-score for `CCOC(=O)c1cc2n(c1N)-c1ccccc1C2=O` ? Thanks!
145

----------
system: Muscarinic acetylcholine receptor M1; assay: M1 muscarinic receptor agonists, primary screen, CHO-M1 cells, Fluo-4 calcium, agonist mode (AID 626); conditions: Fluo-4 calcium fluorescence, at 10 µM, active compounds read high
Among all 64,000 compounds or so, about 1,900 (3%) were called active. The sample holds actives, similar compounds and a random draw of the others, so the mix is not that of the screen.
Collected B-score values appear next to each entry.
Lab note: jot down the number only; don't add units.

These solved cases illustrate the format of a correct answer.
compound	readoutLabel	quantitativeReadout
O=C1c2ccccc2C(=O)N1CCc1nn[nH]n1	B-score	0.641
COCC(C)n1c(SCc2ccc(C(=O)OC)o2)nc2ccccc2c1=O (centres undefined)	B-score	1.47

Could you please provide reported B-score for `Cc1nnc(SCCCn2c(N3CCCCC3)nc3c2c(=O)[nH]c(=O)n3C)s1` ? Thanks!
-0.0644

Could you please provide reported B-score for `Cc1ccc(SCCN2C(=O)NC(C)(C)C2=O)cc1` ? Thanks!
0.397

Could you please provide reported B-score for `O=C(c1ccccc1)c1cccn1CC(=O)N1CCN(c2ccc(F)cc2)CC1` ? Thanks!
-0.56

Could you please provide reported B-score for Cc1ccc(C)n1C(Cc1ccccc1)C(=O)O (centres undefined) ? Thanks!
-0.967

Could you please provide reported B-score for `N#CCCN1CCN(S(=O)(=O)c2ccc(S(=O)(=O)N3CCCC3)cc2)CC1` ? Thanks!
0.0676

Could you please provide reported B-score for Cc1nn2c(c1-c1ccccc1)N=C(c1ccco1)CC2c1ccccc1 (centres undefined) ? Thanks!
5.88

----------
system: Muscarinic acetylcholine receptor M1; assay: M1 muscarinic receptor agonists, primary screen, CHO-M1 cells, Fluo-4 calcium, agonist mode (AID 626); conditions: Fluo-4 calcium fluorescence, at 10 µM, active compounds read high
The campaign covered roughly 64,000 compounds. About 1,900 (3%) were called active. Shown is part of a subset that was picked to be rich in actives.
Binning scheme for B-score: bin A (below -0.2), bin B (-0.2 to below 0.7), bin C (0.7 or more)

A selection of reference data follows.
compound	labelValue
O=C(Nc1cccc(-c2nnc(-c3ccccc3)o2)c1)C1CCCO1 (configuration not stated)	bin C
CN1CCC2(CC1)NC(=O)NC2=O	bin A
O=C(c1ccccc1)N1CCN(C(=O)N2CCCCC2)CC1	bin B
O=C(Nc1nc(-c2ccncc2)cs1)C1COc2ccccc2O1 (configuration not stated)	bin A
Cc1cccc2cc(CN(Cc3cccs3)C(c3nnnn3C3CCCC3)C(C)C)c(=O)[nH]c12 (configuration not stated)	bin A
CCc1nc(N2CCN(c3nc(C)cc(C)n3)CC2)c2oc3ccccc3c2n1	bin B

Kindly identify the class of `COc1ccccc1-n1nnnc1S(=O)(=O)Cc1ccc(Cl)cc1` .
bin C

Kindly identify the class of CCOc1ccc2[nH]c(=O)c(CN(Cc3nnnn3CCc3ccccc3)CC3CCCO3)cc2c1 (configuration not stated) .
bin C

Kindly identify the class of `CCOc1ccc2nc(NCCNS(=O)(=O)c3ccccc3)c(C#N)cc2c1` .
bin A

Kindly identify the class of Cc1cc2cc(CN(Cc3cccs3)Cc3nnnn3CC3CCCO3)c(=O)[nH]c2cc1C (configuration not stated) .
bin C

Kindly identify the class of `CN(C)S(=O)(=O)c1cccc(C(=O)Nc2cccnc2)c1` .
bin B

Kindly identify the class of `CC(=O)N1CCN(C(=O)Nc2cccc(C(F)(F)F)c2)CC1` .
bin C
